experimental target: T1, full-length beta-Catenin (Uniprot ID P35222) (Homo sapiens (Human), UniProt P35222 1-781)
T1 construct: Used full-length in the FP and AlphaScreen assays; also called B-Catenin; bCat
T1 sequence: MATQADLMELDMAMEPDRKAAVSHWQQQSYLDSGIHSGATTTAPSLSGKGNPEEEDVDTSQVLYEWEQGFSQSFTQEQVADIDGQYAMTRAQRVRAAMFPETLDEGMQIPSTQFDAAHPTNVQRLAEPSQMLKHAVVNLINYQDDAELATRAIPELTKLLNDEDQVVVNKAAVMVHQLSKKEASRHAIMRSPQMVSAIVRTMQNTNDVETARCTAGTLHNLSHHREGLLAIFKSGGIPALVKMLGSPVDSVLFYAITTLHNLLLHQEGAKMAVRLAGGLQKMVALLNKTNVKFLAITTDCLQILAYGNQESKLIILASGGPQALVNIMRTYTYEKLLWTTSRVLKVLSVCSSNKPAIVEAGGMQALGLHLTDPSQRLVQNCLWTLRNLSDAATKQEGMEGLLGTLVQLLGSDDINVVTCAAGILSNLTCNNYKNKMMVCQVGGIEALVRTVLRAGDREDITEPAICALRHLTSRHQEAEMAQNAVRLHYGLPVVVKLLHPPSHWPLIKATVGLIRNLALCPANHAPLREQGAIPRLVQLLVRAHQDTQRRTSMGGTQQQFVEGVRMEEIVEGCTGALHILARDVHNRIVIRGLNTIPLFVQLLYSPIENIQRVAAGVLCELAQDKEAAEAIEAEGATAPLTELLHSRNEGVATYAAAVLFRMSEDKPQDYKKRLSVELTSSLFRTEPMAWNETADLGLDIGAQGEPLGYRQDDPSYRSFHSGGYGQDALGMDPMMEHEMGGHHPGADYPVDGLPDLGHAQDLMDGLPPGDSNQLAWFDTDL
procedure details: fluorescence polarization competition; full-length beta-catenin + 5FAM-TCF4(10-53) probe as competitor; peptide titrated
Starred links: 1 amine or outer side, 2 acyl side, 3 side chain; linkers in the order of their positions; H or OH if unused. Positions of bridges follow the written chain, without caps; N, C: chain ends. Non-standard residues stand in square brackets, D forms with d. Primed or numbered codes have the meaning given here. B5(4) = 2,2-bis(4-pentenyl)glycine = 2-amino-2-(pent-4-en-1-yl)hept-6-enoic acid (stitching residue), C=CCCCC(CCCC=C)(N[*:1])C(=O)[*:2]; B5(5) = 2,2-bis(4-pentenyl)glycine, 2-amino-2-(pent-4-en-1-yl)hept-6-enoic acid (stitching residue), C=CCCCC(CCCC=C)(N[*:1])C(=O)[*:2]; SeN = (S)-5-(((allyloxy)carbonyl)(methyl)amino)-2-amino-2-methylpentanoic acid, C=CCOC(=O)N(C)CCC[C@](C)(N[*:1])C(=O)[*:2]; Phe(3,4,5-F3) = N[C@@H](Cc1cc(F)c(F)c(F)c1)C(=O)O; Phe(3-Me) = Cc1cccc(C[C@H](N)C(=O)O)c1; αAllylPro = C=CC[C@@]1(C(=O)O)CCCN1; S8 = C=CCCCCCC[C@](C)(N)C(=O)O
Give measured pEC50 for each item. Keep answers brief.
Lab note: report pEC50 as minus log10 of the concentration in molar units, number only.

Ask: Value lookup for pEC50; key = Ac-[αAllylPro]NA[B5(4)]DEAAFV[S8]FWQ-NH2 (staple 1-4, 4-11, Stapled peptide composition; this is the later-eluting isomer composition) [I-200]
Reply: 5.30

Ask: Using the record for Ac-[αAllylPro]DI[B5(5)]DDAAFQ[SeN]FWH-NH2 (staple 1-4, 4-11; not fully specified; printed as Ac-PL3-Asp-Ile-B5-Asp-Asp-Ala-Ala-Phe-Gln-SeN-Phe-Trp-His-NH2, Stapled peptide composition) [I-188] , report its pEC50.
Reply: 5.80

Ask: Please report the recorded pEC50 for XDAXDEAAFAXFWA (not fully specified; As printed: Ac-PL3-Asp-Ala-B5-Asp-Glu-Ala-Ala-Phe-Ala-S8-Phe-Trp-Ala-NH2. N-terminal Ac; C-terminal amide; PL3 (1), B5 (4), S8 (11) stapled by olefin metathesis (PL3-B5 and B5-S8), Stapled peptide composition; this is the later-eluting isomer composition) [I-187] .
Reply: 5.48

Ask: Reported pEC50 for XDIXDEAAFQXFWQ (not fully specified; As printed: Ac-PL3-Asp-Ile-B5-Asp-Glu-Ala-Ala-Phe-Gln-S8-Phe-Trp-Gln-NH2. N-terminal Ac; C-terminal amide; PL3 (1), B5 (4), S8 (11) stapled by olefin metathesis (PL3-B5 and B5-S8), Stapled peptide composition; this is the later-eluting isomer composition) [I-181] : what is it?
Reply: 6.51

Ask: I am curious: what pEC50 value has been reported for Ac-[αAllylPro]DI[B5(5)]DDAAFQ[SeN]FWH-NH2 (staple 1-4, 4-11; not fully specified; printed as Ac-PL3-Asp-Ile-B5-Asp-Asp-Ala-Ala-Phe-Gln-SeN-Phe-Trp-His-NH2, Stapled peptide composition) [I-189] ?
Reply: 5.80

Ask: # input binder: Ac-[αAllylPro]DA[B5(4)]DEAA[Phe(3-Me)]V[S8]FWQ-NH2 (staple 1-4, 4-11, Stapled peptide composition) [I-208] ; wanted: its pEC50
Reply: 5.76

Ask: Returns the measured pEC50 for the input binder. Input: Ac-[αAllylPro]DI[B5(5)]DDAAFQ[SeN]FWH-NH2 (staple 1-4, 4-11; not fully specified; printed as Ac-PL3-Asp-Ile-B5-Asp-Asp-Ala-Ala-Phe-Gln-SeN-Phe-Trp-His-NH2, Stapled peptide composition) [I-190]
Reply: 6.16

Ask: So what does the record say about pEC50 for Ac-[αAllylPro]DA[B5(4)]DEAA[Phe(3,4,5-F3)]V[S8]FWQ-NH2 (staple 1-4, 4-11; not fully specified; printed as Ac-PL3-Asp-Ala-B5-Asp-Glu-Ala-Ala-345FF-Val-S8-Phe-Trp-Gln-NH2, Stapled peptide composition) [I-211] ?
Reply: 5.30

Ask: I have this binder here, Ac-[αAllylPro]DA[B5(4)]DEAA[Phe(3,4,5-F3)]V[S8]FWQ-NH2 (staple 1-4, 4-11, Stapled peptide composition) [I-212] , and I need its recorded pEC50.
Reply: 5.30

Just for reference, patent US20240116985A1 is where these values come from.
